test.target: 3-hydroxy-3-methylglutaryl-coenzyme A reductase (Homo sapiens)
Sequence (P04035 whole entry): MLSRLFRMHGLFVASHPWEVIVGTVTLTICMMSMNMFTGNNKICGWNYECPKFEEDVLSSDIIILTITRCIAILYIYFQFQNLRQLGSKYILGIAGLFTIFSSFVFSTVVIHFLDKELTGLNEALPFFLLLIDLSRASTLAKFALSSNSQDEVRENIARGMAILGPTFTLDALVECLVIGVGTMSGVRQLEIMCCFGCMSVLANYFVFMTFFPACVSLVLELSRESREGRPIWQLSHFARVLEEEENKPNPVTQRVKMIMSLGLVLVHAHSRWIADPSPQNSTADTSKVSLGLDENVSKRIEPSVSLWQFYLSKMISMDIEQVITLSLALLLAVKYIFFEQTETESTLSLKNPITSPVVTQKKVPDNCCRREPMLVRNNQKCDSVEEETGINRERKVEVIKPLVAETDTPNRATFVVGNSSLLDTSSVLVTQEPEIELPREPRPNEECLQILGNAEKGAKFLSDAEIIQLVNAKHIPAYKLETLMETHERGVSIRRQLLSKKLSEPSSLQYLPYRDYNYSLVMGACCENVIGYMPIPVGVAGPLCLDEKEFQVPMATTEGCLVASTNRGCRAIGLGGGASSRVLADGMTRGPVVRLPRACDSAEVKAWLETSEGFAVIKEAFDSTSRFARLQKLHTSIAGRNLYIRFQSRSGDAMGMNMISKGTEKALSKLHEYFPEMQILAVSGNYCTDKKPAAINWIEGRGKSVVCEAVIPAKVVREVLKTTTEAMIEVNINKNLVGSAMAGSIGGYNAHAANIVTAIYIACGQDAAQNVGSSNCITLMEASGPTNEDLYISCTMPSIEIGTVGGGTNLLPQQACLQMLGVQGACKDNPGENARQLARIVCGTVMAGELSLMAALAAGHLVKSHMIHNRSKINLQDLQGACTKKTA
protocol.text: Tested in vitro for the inhibition of HMG-CoA reductase from partially purified microsomal preparations.
measured.parameter: IC50 (nM)

[[record]]
chemical_structure = "CC(C)c1nn(-c2ccccn2)c(-c2ccc(F)cc2)c1/C=C/[C@@H](O)C[C@@H](O)CC(=O)O"
measured_parameter = "IC50"
numeric_value = 24


###

test.target: 3-hydroxy-3-methylglutaryl-coenzyme A reductase (Homo sapiens, UniProt P04035)
Sequence (P04035 whole entry): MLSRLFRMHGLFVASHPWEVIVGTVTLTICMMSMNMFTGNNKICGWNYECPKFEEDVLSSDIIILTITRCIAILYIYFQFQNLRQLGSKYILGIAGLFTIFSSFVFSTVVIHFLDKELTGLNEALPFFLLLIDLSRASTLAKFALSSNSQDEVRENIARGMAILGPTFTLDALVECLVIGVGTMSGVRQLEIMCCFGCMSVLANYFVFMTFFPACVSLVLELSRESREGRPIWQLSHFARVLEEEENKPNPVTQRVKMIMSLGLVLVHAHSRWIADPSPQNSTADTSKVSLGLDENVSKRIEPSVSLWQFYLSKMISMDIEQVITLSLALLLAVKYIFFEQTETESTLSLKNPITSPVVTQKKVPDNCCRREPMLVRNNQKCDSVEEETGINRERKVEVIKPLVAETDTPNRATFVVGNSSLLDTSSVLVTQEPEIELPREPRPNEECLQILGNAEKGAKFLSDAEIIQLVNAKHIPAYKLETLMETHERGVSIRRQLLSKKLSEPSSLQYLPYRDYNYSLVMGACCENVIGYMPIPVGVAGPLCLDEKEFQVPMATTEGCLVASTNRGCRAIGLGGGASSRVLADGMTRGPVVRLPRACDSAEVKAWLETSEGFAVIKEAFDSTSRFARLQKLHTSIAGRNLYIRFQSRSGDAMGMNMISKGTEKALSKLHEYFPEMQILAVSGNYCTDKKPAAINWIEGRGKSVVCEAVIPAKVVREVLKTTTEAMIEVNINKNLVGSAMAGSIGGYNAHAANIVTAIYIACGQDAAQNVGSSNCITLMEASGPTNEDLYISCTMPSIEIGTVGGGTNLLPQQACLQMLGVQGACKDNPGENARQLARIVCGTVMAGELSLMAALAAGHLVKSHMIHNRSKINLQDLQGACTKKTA
protocol.text: ChEBML_80349
pIC50: −log10 of the molar value.
A collection of compounds and their measured pIC50
measured.parameter: pIC50

[[record]]
compound = "CC(C)c1nn(-c2cnccn2)c(-c2ccc(F)cc2)c1/C=C/[C@@H](O)C[C@@H](O)CC(=O)O"
numeric_value = 8.15

[[record]]
compound = "CC(C)c1nn(-c2ccccc2)c(-c2ccc(F)cc2)c1CCC(O)C[C@@H](O)CC(=O)O (some centres undefined)"
numeric_value = 7.40

[[record]]
compound = "CC(C)c1nn(-c2ccc3ccccc3n2)c(-c2ccc(F)cc2)c1/C=C/[C@@H](O)C[C@@H](O)CC(=O)O"
numeric_value = 7.21

[[record]]
compound = "CC(C)c1nn(-c2nc3ccccc3s2)c(-c2ccc(F)cc2)c1/C=C/[C@@H](O)C[C@@H](O)CC(=O)O"
numeric_value = 7.23


###

test.target: 3-hydroxy-3-methylglutaryl-coenzyme A reductase (Homo sapiens)
protocol.text: ChEBML_80349
A collection of molecules and their measured IC50
measured.parameter: IC50

[[record]]
molecule = "CC(C)c1nn(-c2ccccc2)c(-c2ccc(F)cc2)c1/C=C/[C@@H](O)C[C@@H](O)CC(=O)O"
measured_parameter = "IC50"
result = "7 nM"

[[record]]
molecule = "CC(C)c1nn(-c2ccccn2)c(-c2ccc(F)cc2)c1CCC(O)C[C@@H](O)CC(=O)O (some centres undefined)"
measured_parameter = "IC50"
result = "110 nM"

[[record]]
molecule = "O=C(O)C[C@H](O)C[C@H](O)/C=C/c1c(C(F)(F)F)nn(-c2ccccn2)c1-c1ccc(F)cc1"
measured_parameter = "IC50"
result = "17 nM"

[[record]]
molecule = "CC[C@H](C)C(=O)O[C@H]1C[C@@H](C)C=C2C=C[C@H](C)[C@H](CCC(O)C[C@@H](O)CC(=O)O)[C@H]21 (some centres undefined)"
measured_parameter = "IC50"
result = "20 nM"

